System: Clone20 osteoblast Shn3 3'UTR firefly luciferase, 24 h
protocol summary: Shn3 3'UTR reporter inhibitors, dose response, cell-based, Clone20 osteoblasts, luminescence, dry powder, set 2 (AID 743417)
Results filed as inconclusive are left out. Active and inactive are the calls of the source.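 How the source made its calls: active means compounds lowering the luciferase signal with a fitted half-maximal dose at most twice their top valid dose (cut at about 30 µM in these data); inconclusive means flat fits with moderate signal loss, or poor fits; inactive means the rest.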
Possible outcomes: Y for active, N for inactive

>>> class_label("O=S(=O)(c1ccc(Cl)cc1)N1CCN(Cc2ccc(O)c3ncccc23)CC1")
"Y"
>>> class_label("CCCCCCN1C[C@@H](n2cc(-c3ccc(F)cc3)nn2)[C@H](O)C[C@@H]1c1ccc(Cl)cc1")
"Y"
>>> class_label("Oc1c(Cl)cc(CN2CCOCC2)c2cccnc12")
"Y"
>>> class_label("CSc1nnc(NC(=O)c2nc(S(=O)(=O)Cc3ccccc3)ncc2Cl)s1")
"Y"
>>> class_label("COc1cnc(-c2ccccn2)nc1N(C)c1ccccc1")
"Y"
>>> class_label("C[C@H](O)C#Cc1ccc2c(c1)O[C@@H](CN(C)Cc1ccc(-c3ccccc3)cc1)[C@H](C)CN([C@@H](C)CO)S2(=O)=O")
"Y"
>>> class_label("C=C1C(=O)[C@]23C[C@H]1CCC2[C@@]1(C)C(C[C@@H]3O)[C@](C)(C(=O)OC)CC[C@@H]1O (stereo partly specified)")
"Y"
>>> class_label("O=C(Nc1ccc(F)cc1)c1nc(S(=O)(=O)Cc2ccccc2)ncc1Cl")
"Y"
>>> class_label("CCOC(=O)c1sc(NC(=O)CCCn2nc([N+](=O)[O-])c(Cl)c2C)c(C(=O)OCC)c1C")
"Y"
>>> class_label("CN(c1cccc(Cl)c1)S(=O)(=O)c1cccc(C(=O)NCc2ccncc2)c1")
"Y"
>>> class_label("COC(=O)c1ccccc1NC(=O)c1nc(S(=O)(=O)Cc2ccccc2)ncc1Cl")
"Y"
>>> class_label("CCOc1cc(N2CCOCC2)c(OCC)cc1NC(=O)COc1cccc2cccnc12")
"Y"
>>> class_label("CCN1CCN(Cc2ccc(NC(=O)c3cc(NC(=O)c4cncc(-c5cccs5)c4)cc(OC)c3)cc2C(F)(F)F)CC1")
"Y"
>>> class_label("Cc1cc(S(=O)(=O)NCc2ccncc2)c(C)cc1Br")
"Y"
>>> class_label("C=C1C(=O)OC2CC(C)C3C=CC(=O)C3(C)C(O)C12 (stereo unspecified)")
"Y"
>>> class_label("O=C(CN1C(=O)c2ccccc2S1(=O)=O)c1ccc2c(c1)OCCCO2")
"Y"
>>> class_label("O=S(=O)(c1ccccc1C(F)(F)F)N1CCN(c2ncnc3sccc23)CC1")
"Y"
>>> class_label("O=C(c1ccc(S(=O)(=O)c2ccccc2Cl)c([N+](=O)[O-])c1)N1CCN(Cc2ccccc2)CC1")
"Y"
>>> class_label("Cc1ccc(S(=O)(=O)N2CCN(C(=O)C3CCN(c4ncnc5sc(C)c(C)c45)CC3)CC2)c(C)c1")
"Y"
>>> class_label("CCN(CC)S(=O)(=O)c1cc(NC(=O)C2CCN(c3ncnc4sc(C)c(C)c34)CC2)ccc1Cl")
"Y"
>>> class_label("CC12CC(O)C3c4ccc(O)cc4CCC3C1CCC2=O (stereo unspecified)")
"N"
>>> class_label("Cc1ccc2[nH]c3c(N4CCN(Cc5ccccc5)CC4)ncnc3c2c1")
"Y"
>>> class_label("Cn1nc(CC(=O)Nc2ccc3c(c2)OCCO3)c2ccccc2c1=O")
"Y"
>>> class_label("O=C(Nc1cccc(S(=O)(=O)Nc2ccc(Cl)cc2)c1)c1ccc(Cl)nc1")
"Y"
>>> class_label("CC(C)(C)n1nnnc1C(c1cccs1)N1CCCC2(CCCCC2)C1 (stereo unspecified)")
"Y"
>>> class_label("Cc1sc2ncnc(NCC(C)(C)N3CCOCC3)c2c1C")
"Y"
>>> class_label("O=C(Nc1ccc2oc(-c3ccncc3)nc2c1)c1ccc([N+](=O)[O-])o1")
"Y"
>>> class_label("CCC(C)[C@H]1CNC(=S)N1CCc1cc(C(F)(F)F)cc(C(F)(F)F)c1 (stereo partly specified)")
"Y"
>>> class_label("CCCCN1CC(COCc2ccccc2)Oc2cccc(Oc3ccc(C(C)C)cc3)c2S1(=O)=O (stereo unspecified)")
"Y"
>>> class_label("O=C(NCc1cccnc1)/C(=C/c1ccc(-c2ccc(Cl)cc2)o1)S(=O)(=O)c1ccccc1")
"Y"
>>> class_label("CN(C)c1ccc(/C=C/c2ccc3ccccc3n2)cc1")
"Y"
>>> class_label("COc1ccccc1C(CCNCc1ccc(N(C)C)cc1)c1ccc(OC(C)C)cc1 (stereo unspecified)")
"Y"
>>> class_label("Cc1cccc(N2C(=O)NC(=O)/C(=C\\C=C\\c3ccco3)C2=O)c1")
"Y"
>>> class_label("O=C(Nc1ccncc1)c1ccc(Cl)c(S(=O)(=O)N2CCc3ccccc32)c1")
"Y"
>>> class_label("CNc1ccccc1C(C)(C)c1cc(-c2cccc(Br)c2)no1")
"Y"
>>> class_label("CC(=O)NC(c1cccc([N+](=O)[O-])c1)c1ccc2cccnc2c1O (stereo unspecified)")
"Y"
>>> class_label("Nc1nnc(SCC(=O)Nc2ccc(N3CCOCC3)cc2)s1")
"Y"
>>> class_label("O=C1CC(Sc2nnnn2-c2ccccc2)C(=O)N1c1cccc(Cl)c1 (stereo unspecified)")
"Y"
>>> class_label("CC[C@H]1CN2CCc3cc(OC)c(OC)cc3C2C[C@@H]1C[C@H]1NCCc2cc(OC)c(OC)cc21 (stereo partly specified)")
"Y"
>>> class_label("O=S(=O)(Nc1cc(Sc2ncn[nH]2)c(O)c2ccccc12)c1ccccc1")
"Y"
>>> class_label("COc1cc(SC)ccc1C(=O)Nc1nc2ccccc2[nH]1")
"Y"

###

In this section, each of the molecules is paired with its reported AC50.
Tested on: Clone20 osteoblast Shn3 3'UTR firefly luciferase, 24 h
protocol summary: Shn3 3'UTR reporter inhibitors, dose response, cell-based, Clone20 osteoblasts, luminescence, dry powder, set 2 (AID 743417)
Records with an inconclusive call do not appear.
readout label: AC50

>>> reported_value("C=CCC[C@H](Cc1ccc(F)cc1)C(=O)OC[C@H](Cc1c[nH]c2ccccc12)NC(=O)[C@@H](CC=C)CC(=O)N[C@H](CO)Cc1ccccc1")
"4440 nM"
>>> reported_value("O=C1C=C(c2ccnc3cc(Cl)ccc23)C[C@@H](c2ccc3c(c2)OCO3)C1")
"1360 nM"
>>> reported_value("CC(Oc1ccc(Cl)cc1Cl)c1nc(-c2ccc(NC(=O)c3ccncc3)cc2)no1 (centres undefined)")
"3930 nM"
>>> reported_value("COc1cc(CN2CCc3ccccc3C2)ccc1O")
"912 nM"
>>> reported_value("COc1cccc(C2CC(c3ccc(C)cc3)=NN2C(=O)c2ccccc2F)c1OC (centres undefined)")
"36000 nM"
>>> reported_value("CCCCC(=O)NC(c1ccc(N(CC)CC)cc1)c1ccc2cccnc2c1O (centres undefined)")
"1120 nM"
>>> reported_value("CCOC(=O)CS(=O)(=O)c1nc(-c2ccc(F)cc2)cc(C(F)(F)F)n1")
"1780 nM"
>>> reported_value("Cc1ccc(-n2nnnc2-c2cnc(-c3cccnc3)nc2C(F)(F)F)cc1")
"5890 nM"
>>> reported_value("OC1(c2cccc(C(F)(F)F)c2)CCN(c2ncnc3c2[nH]c2ccc(F)cc23)CC1")
"1870 nM"

###

We begin with a simple list: items and their reported AC50.
Tested on: Clone20 osteoblast Shn3 3'UTR firefly luciferase, 24 h
protocol summary: Shn3 3'UTR reporter inhibitors, dose response, cell-based, Clone20 osteoblasts, luminescence, dry powder, set 2 (AID 743417)
Inconclusive results are not listed.
readout label: AC50

>>> reported_value("CCc1nnc(NC(=O)c2cccc(C(=O)Nc3nnc(CC)s3)n2)s1")
"1.45 µM"
>>> reported_value("CC(C)CCOc1cccc(OCC(=O)Nc2ccncc2)c1")
"0.571 µM"
>>> reported_value("C[n+]1c2n(c3ccccc31)N=C(c1cc(C(C)(C)C)c(O)c(C(C)(C)C)c1)CS2")
"5.92 µM"
>>> reported_value("C#CC(=O)N(c1ccc(OC)c(OC)c1)C(C(=O)NC1CCCC1)c1cccs1 (stereo not given)")
"3.32 µM"
>>> reported_value("CC(=O)OCCCNc1cc(Sc2ccc(Cl)cc2)c2nonc2c1[N+](=O)[O-]")
"1.14 µM"
>>> reported_value("CCOc1ccc(-c2nnc(N3CCCCC3)c3ccccc23)cc1")
"14.9 µM"
>>> reported_value("Cc1sc2ncnc(N3CCN(S(=O)(=O)c4ccc(Br)cc4)CC3)c2c1C")
"3.59 µM"
>>> reported_value("C=CCn1c(NCCc2ccccc2)nc2c1c(=O)n(C)c(=O)n2C")
"1.83 µM"
>>> reported_value("CCC1CCCCN1S(=O)(=O)c1ccc(NC(=O)c2nc(S(C)(=O)=O)ncc2Cl)cc1 (stereo not given)")
"0.341 µM"
>>> reported_value("CCn1c2ccccc2c2cc(CNCc3ccc(OC)cc3OC)ccc21")
"14.7 µM"
